Test system: HBV viral production from HepAD38 cells
Test: Activity of test compounds on viral production from HepAD38 cells (viral load by qPCR of HBV core sequence in supernatant)
Type: cell-based
Settings: Hepatitis B virus, 120 h, 5 days incubation, HBV DNA in supernatant by qPCR, top concentration 10 μM, read-out: Viral Load EC50 Activity range
pEC50: −log10 of the molar value.

[
  {
    "compound": "[2H]C([2H])([2H])N1C(C(=O)Nc2ccc(F)c(Cl)c2)CC(c2ccc(Br)s2)NS1(=O)=O (racemic) [HBV-CSU-370]",
    "pEC50": "> 6.00"
  },
  {
    "compound": "CN1C(C(=O)Nc2cccc(C#N)c2)CC(c2cccs2)NS1(=O)=O (racemic) [HBV-CSU-020]",
    "pEC50": "> 6.00"
  },
  {
    "compound": "CN1C(C(=O)Nc2ccc(F)c(Cl)c2)CC(c2cc(-c3ncnn3C)cs2)NS1(=O)=O (racemic) [HBV-CSU-327]",
    "pEC50": "> 6.00"
  },
  {
    "compound": "CN1[C@H](C(=O)Nc2ccc(F)c(Cl)c2)C[C@H](c2ccc(Cc3ccccc3)s2)NS1(=O)=O [HBV-CSU-117-ISO-I]",
    "pEC50": "> 6.00"
  },
  {
    "compound": "CN1[C@H](C(=O)Nc2ccc(F)c(Cl)c2)C[C@H](c2ccc(C(F)(F)F)cc2)NS1(=O)=O (stereo in doubt) [HBV-CSU-217-ISO-I]",
    "pEC50": "< 5.30"
  },
  {
    "compound": "CN1C(C(=O)Nc2ccc(F)c(Cl)c2)CC(c2ncc(-c3ccc(Br)c(F)c3)s2)NS1(=O)=O (racemic) [HBV-CSU-173]",
    "pEC50": "> 6.00"
  }
]
